These entries and their values trace back to ChEMBL document CHEMBL1201862.

# Test system: HOP-92
# assay_protocol: NCI tumour cell line growth inhibition, 48 h
Active and inactive are the calls of the source. Cut-off read from the data, not from the text of the source: active = GI50 up to about 1.1 µM and inactive = higher.
parameter_measured: GI50

// worked examples, GI50 included
compound: Oc1cc(-c2ccc(Cl)cc2)nc2ncccc12
parameter_measured: GI50
recorded_value: 41.2 µM (inactive)

compound: O=C(O)/C(Cc1ccc([N+](=O)[O-])cc1)=N\O
parameter_measured: GI50
recorded_value: 27.9 µM (inactive)

compound: Cn1c(=O)c2nc(CSCc3ccccc3)[nH]c2n(C)c1=O
parameter_measured: GI50
recorded_value: > 100 µM (inactive)

Now take the following compound into account.
Data request, read-out GI50, for CC(C)N1C(C)[C@@H](c2ccccc2)O[P@@]1(=O)CC1=CCCCC1 (some centres undefined)
45.8 µM (inactive)
